Data credit: ChEMBL document CHEMBL1287807

- Target desc: Disintegrin and metalloproteinase domain-containing protein 10 (Homo sapiens)
- Sequence (O14672 whole entry, the tested form may be a part): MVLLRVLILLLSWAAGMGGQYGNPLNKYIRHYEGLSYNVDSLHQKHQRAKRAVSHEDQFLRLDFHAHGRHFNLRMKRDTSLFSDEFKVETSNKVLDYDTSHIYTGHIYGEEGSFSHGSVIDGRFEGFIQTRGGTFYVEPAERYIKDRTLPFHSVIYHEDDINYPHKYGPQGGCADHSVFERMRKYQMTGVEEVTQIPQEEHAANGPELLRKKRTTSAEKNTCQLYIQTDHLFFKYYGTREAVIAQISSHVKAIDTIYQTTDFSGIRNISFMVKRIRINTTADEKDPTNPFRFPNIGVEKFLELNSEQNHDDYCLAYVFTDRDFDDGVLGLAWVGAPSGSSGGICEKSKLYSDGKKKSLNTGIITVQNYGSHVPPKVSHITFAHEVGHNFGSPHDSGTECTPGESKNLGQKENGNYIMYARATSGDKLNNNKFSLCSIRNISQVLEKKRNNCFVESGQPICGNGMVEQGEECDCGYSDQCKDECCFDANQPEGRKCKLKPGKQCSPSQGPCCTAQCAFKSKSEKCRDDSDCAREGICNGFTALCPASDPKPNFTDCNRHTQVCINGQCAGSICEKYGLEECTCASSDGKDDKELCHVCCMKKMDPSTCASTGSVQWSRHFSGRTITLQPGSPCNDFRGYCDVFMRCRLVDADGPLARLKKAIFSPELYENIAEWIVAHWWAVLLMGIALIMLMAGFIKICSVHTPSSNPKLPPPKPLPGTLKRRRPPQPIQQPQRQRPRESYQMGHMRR
pIC50: −log10 of the molar value.
Parameter: pIC50

INSERT INTO assay_data (smiles_record, target_desc, meas_value) VALUES
  ('COc1ccc2c(c1)C(=O)N(C[C@@]1(C#Cc3cccnc3)NC(=O)NC1=O)C2', 'Disintegrin and metalloproteinase domain-containing protein 10 (Homo sapiens)', 7.66);

###

- Assay protocol: Clearance in dog at 0.5 mg/kg, iv
- Assay type: ADME, organism-based, Canis lupus familiaris
- Parameters: dose 0.5 mg/kg, route intravenous
- Applied conditions: in vivo
Parameter: clearance

INSERT INTO assay_data (smiles_record, meas_value) VALUES
  ('COc1ccc2c(c1)C(=O)N(C[C@@]1(C#Cc3cccnc3)NC(=O)NC1=O)C2', '317 mL/min/kg');
